Test system: 485176-168-R4-J1-PDC complex spheroid growth
ASSAY: Anticancer human tumor 485176-168-R4-J1-PDC patient-derived pancreatic adenocarcinoma cell line growth inhibition [RAS]
MEASUREMENT_SETUP: second compound 0.0316 µM; first compound 3.16 µM; hits give low values

# COMPOUND, viability, T/C / %
records = [
    ("CCC(CC)c1cc(NC2CCC(N)C2)n2nccc2n1 (stereo not given) + C=CC(=O)N1CCN(c2nc(OCC3CCCN3C)nc3c(F)c(-c4nc(N)cc(C)c4C(F)(F)F)c(Cl)cc23)C(C)C1", 2.99),
    ("CC1(O)CCCC1n1c(=O)c(C(F)F)cc2cnc(NC3CCN(S(C)(=O)=O)CC3)nc21 (stereo not given) + C#Cc1c(F)ccc2cc(O)cc(-c3ncc4c(N5CC6CCC(C5)N6)nc(OCC56CCCN5CC(F)C6)nc4c3F)c12", 44.1),
    ("NC1c2ccccc2OC12CCN(c1cnc3c(N4CCCc5ncccc54)n[nH]c3n1)CC2 (stereo not given) + C=CC(=O)N1CCN(c2nc(OCC3CCCN3C)nc3c(F)c(-c4nc(N)cc(C)c4C(F)(F)F)c(Cl)cc23)C(C)C1", 72.9),
    ("Cc1nc(N2CCC3(CC2)COC(C)C3N)c(CO)nc1Sc1ccnc(N)c1Cl (stereo not given) + C=CC(=O)N1CCN(c2nc(OCC3CCCN3C)nc3c(F)c(-c4nc(N)cc(C)c4C(F)(F)F)c(Cl)cc23)C(C)C1", 66.6),
    ("CC(C)NCC(C(=O)N1CCN(c2ncnc3c2C(C)CC3O)CC1)c1ccc(Cl)cc1 (stereo not given) + C=CC(=O)N1CCN(c2nc(OCC3CCCN3C)nc3c(F)c(-c4nc(N)cc(C)c4C(F)(F)F)c(Cl)cc23)C(C)C1", 45.3),
]

----------
List of viability, T/C values.
System: 485176-168-R4-J1-PDC complex spheroid growth
ASSAY: Anticancer human tumor 485176-168-R4-J1-PDC cell line growth inhibition [RAS];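 also: spheroids exposed to compounds for seven days before readout; luminescence viability expressed relative to DMSO vehicle wells set as 100%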
MEASUREMENT_SETUP: second compound 0.1 µM; first compound 1 µM; hits give low values

# COMPOUND, MEASURED_TARGET, viability, T/C
data = [
    ("Nc1ccn(C2OC(CO)C(O)C2(F)F)c(=O)n1 (centres undefined) + C=CC(=O)N1CCN(c2nc(OCC3CCCN3C)nc3c(F)c(-c4nc(N)cc(C)c4C(F)(F)F)c(Cl)cc23)C(C)C1", "485176-168-R4-J1-PDC complex spheroid growth", "8.42%"),
    ("CC1(O)CCCC1n1c(=O)c(C(F)F)cc2cnc(NC3CCN(S(C)(=O)=O)CC3)nc21 (centres undefined) + C#Cc1c(F)ccc2cc(O)cc(-c3ncc4c(N5CC6CCC(C5)N6)nc(OCC56CCCN5CC(F)C6)nc4c3F)c12", "485176-168-R4-J1-PDC complex spheroid growth", "61.2%"),
    ("O=C(c1ccc(F)c(F)c1Nc1ccc(I)cc1F)N1CC(O)([C@@H]2CCCCN2)C1 + C=CC(=O)N1CCN(c2nc(OCC3CCCN3C)nc3c(F)c(-c4nc(N)cc(C)c4C(F)(F)F)c(Cl)cc23)C(C)C1", "485176-168-R4-J1-PDC complex spheroid growth", "34.4%"),
    ("C=CC(=O)Nc1cc(Nc2nccc(-c3cn(C)c4ccccc34)n2)c(OC)cc1N(C)CCN(C)C + C#Cc1c(F)ccc2cc(O)cc(-c3ncc4c(N5CC6CCC(C5)N6)nc(OCC56CCCN5CC(F)C6)nc4c3F)c12", "485176-168-R4-J1-PDC complex spheroid growth", "66.8%"),
    ("C=CC(=O)N1CCN(c2nc(OCC3CCCN3C)nc3c(F)c(-c4nc(N)cc(C)c4C(F)(F)F)c(Cl)cc23)C(C)C1 (centres undefined) + C#Cc1c(F)ccc2cc(O)cc(-c3ncc4c(N5CC6CCC(C5)N6)nc(OCC56CCCN5CC(F)C6)nc4c3F)c12", "485176-168-R4-J1-PDC complex spheroid growth", "103%"),
    ("CC(=O)OC12COC1CC(O)C1(C)C(=O)C(O)C3=C(C)C(OC(=O)C(O)C(NC(=O)OC(C)(C)C)c4ccccc4)CC(O)(C(OC(=O)c4ccccc4)C21)C3(C)C (centres undefined) + C=CC(=O)N1CCN(c2nc(OCC3CCCN3C)nc3c(F)c(-c4nc(N)cc(C)c4C(F)(F)F)c(Cl)cc23)C(C)C1", "485176-168-R4-J1-PDC complex spheroid growth", "11.3%"),
    ("NC1c2ccccc2OC12CCN(c1cnc3c(N4CCCc5ncccc54)n[nH]c3n1)CC2 (centres undefined) + C#Cc1c(F)ccc2cc(O)cc(-c3ncc4c(N5CC6CCC(C5)N6)nc(OCC56CCCN5CC(F)C6)nc4c3F)c12", "485176-168-R4-J1-PDC complex spheroid growth", "76.2%"),
    ("CC(C)NCC(C(=O)N1CCN(c2ncnc3c2C(C)CC3O)CC1)c1ccc(Cl)cc1 (centres undefined) + C#Cc1c(F)ccc2cc(O)cc(-c3ncc4c(N5CC6CCC(C5)N6)nc(OCC56CCCN5CC(F)C6)nc4c3F)c12", "485176-168-R4-J1-PDC complex spheroid growth", "59.8%"),
    ("CC(Nc1ccc2c(c1)OCCn1cc(N3C(=O)OCC3C(F)F)nc1-2)C(N)=O (centres undefined) + C#Cc1c(F)ccc2cc(O)cc(-c3ncc4c(N5CC6CCC(C5)N6)nc(OCC56CCCN5CC(F)C6)nc4c3F)c12", "485176-168-R4-J1-PDC complex spheroid growth", "70.8%"),
]

----------
Tested on: 485176-168-R4-J1-PDC complex spheroid growth
ASSAY: Anticancer human tumor 485176-168-R4-J1-PDC cell line growth inhibition [RAS];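 also: spheroids exposed to compounds for seven days before readout; luminescence viability expressed relative to DMSO vehicle wells set as 100%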
MEASUREMENT_SETUP: second compound 0.03 µM; first compound 10 µM; hits give low values
REPORTED_PROPERTY: viability, T/C (%)

# COMPOUND, U, MEASURED_NUMBER
records = [
    ("CC(Nc1ccc2c(c1)OCCn1cc(N3C(=O)OCC3C(F)F)nc1-2)C(N)=O (stereo not drawn) + CCn1c(-c2cc(N3CCN(C)CC3)cnc2C(C)OC)c2c3cc(ccc31)-c1csc(n1)CC(NC(=O)C1CC1C)C(=O)N1CCCC(N1)C(=O)OCC(C)(C)C2", "%", 48.1),
    ("CC(=O)OC12COC1CC(O)C1(C)C(=O)C(O)C3=C(C)C(OC(=O)C(O)C(NC(=O)OC(C)(C)C)c4ccccc4)CC(O)(C(OC(=O)c4ccccc4)C21)C3(C)C (stereo not drawn) + CCn1c(-c2cccnc2C(C)OC)c2c3cc(ccc31)N1CCOC(CC(NC(=O)C(C(C)C)N(C)C(=O)C3(F)CCN(C(=O)C#CC(C)(C)N(C)C)CC3)C(=O)N3CCCC(N3)C(=O)OCC(C)(C)C2)C1", "%", 16.8),
    ("CC(Nc1ccc2c(c1)OCCn1cc(N3C(=O)OCC3C(F)F)nc1-2)C(N)=O (stereo not drawn) + CCn1c(-c2cccnc2C(C)OC)c2c3cc(ccc31)N1CCOC(CC(NC(=O)C(C(C)C)N(C)C(=O)C3(F)CCN(C(=O)C#CC(C)(C)N(C)C)CC3)C(=O)N3CCCC(N3)C(=O)OCC(C)(C)C2)C1", "%", 56.5),
    ("CCC(CC)c1cc(NC2CCC(N)C2)n2nccc2n1 (stereo not drawn) + CCn1c(-c2cccnc2C(C)OC)c2c3cc(ccc31)N1CCOC(CC(NC(=O)C(C(C)C)N(C)C(=O)C3(F)CCN(C(=O)C#CC(C)(C)N(C)C)CC3)C(=O)N3CCCC(N3)C(=O)OCC(C)(C)C2)C1", "%", 0.41),
    ("Cc1nc(N2CCC3(CC2)COC(C)C3N)c(CO)nc1Sc1ccnc(N)c1Cl (stereo not drawn) + CCn1c(-c2cc(N3CCN(C)CC3)cnc2C(C)OC)c2c3cc(ccc31)-c1csc(n1)CC(NC(=O)C1CC1C)C(=O)N1CCCC(N1)C(=O)OCC(C)(C)C2", "%", 63.4),
    ("CCC(CC)c1cc(NC2CCC(N)C2)n2nccc2n1 (stereo not drawn) + CCn1c(-c2cc(N3CCN(C)CC3)cnc2C(C)OC)c2c3cc(ccc31)-c1csc(n1)CC(NC(=O)C1CC1C)C(=O)N1CCCC(N1)C(=O)OCC(C)(C)C2", "%", 0.38),
    ("CC(C)NCC(C(=O)N1CCN(c2ncnc3c2C(C)CC3O)CC1)c1ccc(Cl)cc1 (stereo not drawn) + CCn1c(-c2cc(N3CCN(C)CC3)cnc2C(C)OC)c2c3cc(ccc31)-c1csc(n1)CC(NC(=O)C1CC1C)C(=O)N1CCCC(N1)C(=O)OCC(C)(C)C2", "%", 31.7),
    ("CC1(O)CCCC1n1c(=O)c(C(F)F)cc2cnc(NC3CCN(S(C)(=O)=O)CC3)nc21 (stereo not drawn) + CCn1c(-c2cc(N3CCN(C)CC3)cnc2C(C)OC)c2c3cc(ccc31)-c1csc(n1)CC(NC(=O)C1CC1C)C(=O)N1CCCC(N1)C(=O)OCC(C)(C)C2", "%", 1.78),
]
